# METHOD DESCRIPTION: Pharmacokinetic evaluation in CD-1 mice (IV and oral)
# Assay type: in vivo
# EXPERIMENTAL PARAMETERS: mouse, plasma, IV 1 mg/kg, read-out: Half life T1/2 (IV) (converted)
Counter-ions that a name gives are not always drawn.
MEASURE NAME: half-life (h)
Give bare numbers, in h.

The recorded half-life for entry COc1cc2nc(C)nc(N[C@H](C)c3cccc(C(F)(F)C(C)(C)O)c3F)c2cc1OC(=O)N1CCN(C)CC1C (stereo partly shown) [Hydrochloride of compound 14] equals 2.96
